Assay: chemical genetic growth profiling, strain panel (AID 1159580);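 note: tested at 20 µM; growth read once vehicle control cultures reached saturation at 30 °C; 1 = growth at the plate median or of vehicle wells; lower values mean less growth of the strain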
Details: S. cerevisiae deletion strains, growth OD, locus YER110C, active compounds read low
Screen size: about 5,500 compounds; about 2,000 (36%) were called active. Another 18% or so got no clear call; they are omitted. This is one part of the list.
metric-name: normalized growth
Write no unit; give the number alone.

Example cases with answers are listed next.
>>> value_reported("OC[C@H]1O[C@@H](O[C@H]2[C@H](O)[C@@H](O)[C@@H](O)O[C@@H]2CO)[C@H](O)[C@@H](O)[C@@H]1O")
1.02
>>> value_reported("CN[C@@H]1[C@H](O)[C@H](NC)[C@H]2O[C@@]3(O)C(=O)C[C@@H](C)O[C@H]3O[C@@H]2[C@H]1O")
1.03
>>> value_reported("NC(Cn1ccc(=O)c(O)c1)C(=O)O (stereo unspecified)")
0.969
>>> value_reported("CC(C)c1ccc2c(c1)CCC1[C@](C)(CN)CCC[C@]21C (stereo partly specified)")
0.684
>>> value_reported("CO[C@H]1CC(O[C@@H]2/C(C)=C/C[C@@H]3C[C@@H](C[C@]4(CC[C@H](C)[C@@H](C5CCCCC5)O4)O3)OC(=O)[C@@H]3C=C(C)/C(=N\\O)[C@H]4OC/C(=C\\C=C\\[C@@H]2C)[C@]43O)O[C@@H](C)C1O (stereo partly specified)")
0.994

Query: Query (compound): COc1cc(C/C=C/c2ccccc2)c(OC)cc1O ; field requested: normalized growth
Reply: 0.924

Query: Would you kindly share the measured normalized growth for CC(CCc1ccccc1)NCC(O)c1ccc(O)c(C(N)=O)c1 (stereo unspecified) ?
Reply: 1.02

Query: Please report the recorded normalized growth for CCN(CC)CCOC(=O)C(c1ccccc1)C1CCCCC1 (stereo unspecified) .
Reply: 0.973

Query: # get_value(readout='normalized growth', item= Nc1ccc(S(=O)(=O)NC(=O)c2ccccc2)cc1 )
Reply: 1.03

Query: Would you kindly share the measured normalized growth for CN(C)[C@@H]1C(=O)C(C(N)=O)=C(O)[C@@]2(O)C(=O)C3=C(O)c4c(O)ccc(Cl)c4[C@@](C)(O)[C@H]3C[C@@H]12 ?
Reply: 1.01

Query: Which normalized growth value is on record for CC(=O)OCC(=O)[C@@]1(O)[C@H](C)CC2C3CCC4=CC(=O)C=C[C@]4(C)[C@@]3(F)[C@@H](O)C[C@@]21C (stereo partly specified) ?
Reply: 0.995

* * *

Assay: chemical genetic growth profiling, strain panel (AID 1159580);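 note: tested at 20 µM; growth read once vehicle control cultures reached saturation at 30 °C; 1 = growth at the plate median or of vehicle wells; lower values mean less growth of the strain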
Settings: S. cerevisiae deletion strains, growth OD, locus YOR184W, strain ser1, active compounds read low
Out of some 5,500 compounds screened, about 2,000 (36%) were called active. Inconclusive results (about 18%) are left out. This is one part of the list.
metric-name: normalized growth
Number, no unit, nothing else.

>>> value_reported("CC(=O)Oc1c(Cl)c(C)c2c(c1Cl)OC(=O)c1c(C)c(Cl)c(OC(C)=O)c(Cl)c1O2")
0.652
>>> value_reported("COc1ccc2cc(CCC(C)=O)ccc2c1")
0.786
>>> value_reported("CN(C)c1ccc(O)c2c1C[C@H]1C[C@H]3[C@H](N(C)C)C(=O)C(C(N)=O)=C(O)[C@@]3(O)C(=O)C1=C2O")
0.985
>>> value_reported("CCC(C)[C@H]1O[C@]2(C=C[C@@H]1C)C[C@@H]1C[C@@H](C/C=C(\\C)[C@@H](OC3C[C@H](OC)C(O[C@H]4C[C@H](OC)[C@@H](O)[C@H](C)O4)[C@H](C)O3)[C@@H](C)/C=C/C=C3\\CO[C@@H]4[C@H](O)C(C)=C[C@@H](C(=O)O1)[C@]34O)O2 (some centres not stated)")
0.698
>>> value_reported("CC(=O)O[C@@H]1C=C[C@@]2(C)C(C[C@@H](OC(C)=O)[C@@]3(C)C4=CC(=O)O[C@@H](c5ccoc5)[C@]4(C)CCC23)C1(C)C (some centres not stated)")
0.0712
>>> value_reported("CCC(C)C(=O)OC1[C@@H]2CC3=C4CC(=O)O[C@@H](c5ccoc5)[C@]4(C)CCC3[C@@](C)(C2=O)[C@@H](CC(=O)OC)C1(C)C (some centres not stated)")
0.983

Query: Entry CCCOc1ccc2nc(NC(=O)OC)[nH]c2c1 : reported normalized growth = ?
Reply: 0.957

Query: Any idea what normalized growth was measured for CO[C@H]1CC(O[C@@H]2/C(C)=C/C[C@@H]3C[C@@H](C[C@]4(CC[C@H](C)[C@@H](C5CCCCC5)O4)O3)OC(=O)[C@@H]3C=C(C)/C(=N\O)[C@H]4OC/C(=C\C=C\[C@@H]2C)[C@]43O)O[C@@H](C)C1O (some centres not stated) ?
Reply: 0.991

Query: Need normalized growth of NCCCCCCNS(=O)(=O)c1cccc2c(Cl)cccc12 , thanks.
Reply: 0.961

Query: Fill blank: measured normalized growth of the compound COC(=O)c1c(C)c2c(c(C)c1OC)OC(=O)c1c(C)c(Cl)c(OC)c(Cl)c1O2 is ____.
Reply: 1.02

Query: Which normalized growth is listed for COC(=O)c1c(OC)cc2c(c1C)Oc1c(Cl)c(O)c(Cl)c(C)c1C(=O)O2 ?
Reply: 0.918

Query: Given the entry CCOC(=O)[C@H](CCc1ccccc1)N[C@@H](C)C(=O)N1CCC[C@H]1C(=O)O , report its measured normalized growth.
Reply: 1.04

Query: What does the record list as normalized growth for CN(C)[C@@H]1C(=O)C(C(N)=O)=C(O)[C@@]2(O)C(=O)C3=C(O)c4c(O)ccc(Cl)c4[C@@H](O)[C@H]3C[C@@H]12 ?
Reply: 0.995

Query: Can you share its normalized growth? I mean this compound: CC(=O)O[C@H]1CCC2(C)C3=C(CCC2C1(C)C)[C@@]1(C)CC[C@@H](C(C)CCC=C(C)C)[C@]1(C)CC3 (some centres not stated)
Reply: 0.926

Query: Please give the measured normalized growth for this compound: CC(=O)c1cc(CC=C(C)C)c(O)c(CC=C(C)C)c1
Reply: 0.838

Query: # lookup: normalized growth of CCCSc1ccc2nc(NC(=O)OC)[nH]c2c1
Reply: 0.893

Query: Reported normalized growth for CC(C)=CC1C(C(=O)O)C1(C)C (configuration not stated) : what is it?
Reply: 0.963

Query: Entry C=C1c2cccc(O)c2C(O)=C2C(=O)[C@]3(O)C(O)=C(C(N)=O)C(=O)[C@@H](N(C)C)[C@@H]3[C@@H](O)[C@H]12 : reported normalized growth = ?
Reply: 0.98

Query: Requested read-out: normalized growth. Entry: CC(=O)O[C@@H]1CC[C@@]2(C)C(C[C@@H](OC(C)=O)[C@@]3(C)C4=CC(=O)O[C@@H](c5ccoc5)[C@]4(C)CCC23)C1(C)C (some centres not stated)
Reply: 1.01

Query: Param item = COc1ccccc1OCC(O)CO (configuration not stated) ; retrieve measured normalized growth.
Reply: 1

Query: Return reported normalized growth; argument: COc1c(C)c2c(c(C)c1Cl)Oc1c(Cl)c(OC)c(Cl)c(C)c1C(=O)O2
Reply: 1.05

Query: // query normalized growth value for entry CC(=O)Oc1ccc(/C=C/c2cc(OC(C)=O)cc(OC(C)=O)c2)cc1
Reply: 0.904

Query: Which normalized growth is listed for C=C1c2c(Cl)ccc(O)c2C(O)=C2C(=O)[C@]3(O)C(O)=C(C(N)=O)C(=O)[C@@H](N(C)C)[C@@H]3[C@@H](O)[C@H]12 ?
Reply: 0.978

Query: Please look up its normalized growth: CC(C)=CCCC(C)[C@@H]1CC[C@]2(C)C3=C(CC[C@@]12C)C1(C)CC[C@H](O)C(C)(C)C1CC3 (some centres not stated)
Reply: 0.85

Query: Which measured normalized growth value corresponds to CN(C)C1C(=O)C(C(N)=O)=C(O)C2(O)C(=O)C3=C(O)c4c(O)ccc(Cl)c4C(C)(O)C3CC12 (configuration not stated) ?
Reply: 0.973

Query: # input compound: CN(C)[C@@H]1C(=O)C(C(N)=O)=C(O)[C@@]2(O)C(=O)C3=C(O)c4c(O)cccc4[C@@](C)(O)[C@H]3[C@H](O)[C@@H]12 ; wanted: its normalized growth
Reply: 1

Query: What does the data say about its normalized growth? Entry: NC1=NCCN1CC(=O)O
Reply: 1.01
